# IC50 per entry for UniProtKB P11712
# Sequence (P11712 whole entry): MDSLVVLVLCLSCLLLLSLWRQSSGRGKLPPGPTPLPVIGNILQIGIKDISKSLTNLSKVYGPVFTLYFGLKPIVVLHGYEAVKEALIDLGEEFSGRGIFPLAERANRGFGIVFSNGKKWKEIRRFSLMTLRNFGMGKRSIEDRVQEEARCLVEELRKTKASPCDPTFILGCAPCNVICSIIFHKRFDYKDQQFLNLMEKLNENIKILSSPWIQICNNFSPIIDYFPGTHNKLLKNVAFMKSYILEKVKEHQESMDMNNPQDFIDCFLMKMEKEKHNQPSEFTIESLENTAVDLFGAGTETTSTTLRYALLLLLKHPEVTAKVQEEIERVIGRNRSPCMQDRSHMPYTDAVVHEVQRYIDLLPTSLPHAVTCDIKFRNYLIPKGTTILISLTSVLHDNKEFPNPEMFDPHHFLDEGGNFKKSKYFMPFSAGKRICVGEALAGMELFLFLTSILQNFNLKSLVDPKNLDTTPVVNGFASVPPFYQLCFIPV

{"columns": ["Test Smiles", "Result Units", "Limit Sign", "IC50"],
 "data": [
  ["Cc1c(-c2cc(F)c(N)cc2F)ccc2c3ocnc3c(=O)n(C3CC3)c12", "nM", ">", 30000],
  ["Cc1c(-c2ccc3[nH]ncc3c2)ccc2c3oc(CN)nc3c(=O)n(C3CC3)c12", "nM", "=", 200],
  ["Cc1c(-c2cc(F)c(N)cc2F)ccc2c3oc(CN)nc3c(=O)n(C3CC3)c12", "nM", "=", 300]
]}

###

Reported logD is given for each of the following molecules.
# Assay Comment: Lipophilicity, logD of the compound at pH 7.4
# Format: physicochemical
# Assay Context: buffer
Endpoint Name: logD

{"columns": ["Test Smiles", "Measured Number"],
 "data": [
  ["Cc1c(-c2cnc(N)nc2)ccc2c3ocnc3c(=O)n(C3CC3)c12", 1.32],
  ["Cc1c(-c2ccc(N)cc2F)ccc2c3ocnc3c(=O)n(C3CC3)c12", 3.05],
  ["Cc1c(-c2cnc(N)cn2)ccc2c3ocnc3c(=O)n(C3CC3)c12", 1.46],
  ["Cc1c(-c2cc(F)c(CO)cc2F)ccc2c3ocnc3c(=O)n(C3CC3)c12", 3.14],
  ["Cc1c(-c2ccc(N)c(C#N)c2)ccc2c3ocnc3c(=O)n(C3CC3)c12", 2.94],
  ["Cc1c(-c2ccc3nonc3c2)ccc2c3ocnc3c(=O)n(C3CC3)c12", 3.03],
  ["Cc1c(-c2ccc3c(c2)CNC3)ccc2c3ocnc3c(=O)n(C3CC3)c12", 0.75],
  ["Cc1c(-c2ccc(N)cc2)ccc2c3ocnc3c(=O)n(C3CC3)c12", 2.59],
  ["Cc1c(-c2cc(F)c(N)cc2F)ccc2c3ocnc3c(=O)n(C3CC3)c12", 2.96],
  ["Cc1c(-c2ccc3[nH]c(N)nc3c2)ccc2c3ocnc3c(=O)n(C3CC3)c12", 2.52],
  ["Cc1c(-c2ccc3[nH]cnc3c2)ccc2c3ocnc3c(=O)n(C3CC3)c12", 3.03],
  ["Cc1c(-c2ccc3[nH]ncc3c2)ccc2c3ocnc3c(=O)n(C3CC3)c12", 3.29]
]}

###

# Study System: Cytochrome P450 2C19 (Homo sapiens)
# Sequence (P33261 whole entry): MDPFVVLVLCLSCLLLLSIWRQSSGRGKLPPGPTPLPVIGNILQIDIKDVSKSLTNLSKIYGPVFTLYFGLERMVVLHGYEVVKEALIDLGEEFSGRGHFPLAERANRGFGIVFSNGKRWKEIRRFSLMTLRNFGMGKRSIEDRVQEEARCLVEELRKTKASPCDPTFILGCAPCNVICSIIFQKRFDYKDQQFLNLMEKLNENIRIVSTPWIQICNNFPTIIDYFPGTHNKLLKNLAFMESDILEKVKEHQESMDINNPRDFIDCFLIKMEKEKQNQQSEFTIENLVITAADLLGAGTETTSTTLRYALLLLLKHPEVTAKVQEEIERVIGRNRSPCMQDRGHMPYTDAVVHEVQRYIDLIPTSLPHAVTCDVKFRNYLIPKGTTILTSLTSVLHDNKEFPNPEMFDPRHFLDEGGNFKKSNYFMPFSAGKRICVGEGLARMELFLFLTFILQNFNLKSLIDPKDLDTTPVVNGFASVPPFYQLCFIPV
pIC50: −log10 of the molar value.
Endpoint Name: pIC50

{"columns": ["Test Smiles", "Study System", "Endpoint Name", "Limit Sign", "Measured Number"],
 "data": [
  ["Cc1c(-c2ccc3[nH]ncc3c2)ccc2c3oc(CN)nc3c(=O)n(C3CC3)c12", "Cytochrome P450 2C19 (Homo sapiens)", "pIC50", "=", 6.10],
  ["Cc1c(-c2cc(F)c(N)cc2F)ccc2c3oc(CN)nc3c(=O)n(C3CC3)c12", "Cytochrome P450 2C19 (Homo sapiens)", "pIC50", "=", 6.30],
  ["Cc1c(-c2cc(F)c(N)cc2F)ccc2c3ocnc3c(=O)n(C3CC3)c12", "Cytochrome P450 2C19 (Homo sapiens)", "pIC50", "<", 4.52]
]}

###

# Study System: hERG (KCNH2) (Homo sapiens, UniProt Q12809)
# Sequence (Q12809 whole entry): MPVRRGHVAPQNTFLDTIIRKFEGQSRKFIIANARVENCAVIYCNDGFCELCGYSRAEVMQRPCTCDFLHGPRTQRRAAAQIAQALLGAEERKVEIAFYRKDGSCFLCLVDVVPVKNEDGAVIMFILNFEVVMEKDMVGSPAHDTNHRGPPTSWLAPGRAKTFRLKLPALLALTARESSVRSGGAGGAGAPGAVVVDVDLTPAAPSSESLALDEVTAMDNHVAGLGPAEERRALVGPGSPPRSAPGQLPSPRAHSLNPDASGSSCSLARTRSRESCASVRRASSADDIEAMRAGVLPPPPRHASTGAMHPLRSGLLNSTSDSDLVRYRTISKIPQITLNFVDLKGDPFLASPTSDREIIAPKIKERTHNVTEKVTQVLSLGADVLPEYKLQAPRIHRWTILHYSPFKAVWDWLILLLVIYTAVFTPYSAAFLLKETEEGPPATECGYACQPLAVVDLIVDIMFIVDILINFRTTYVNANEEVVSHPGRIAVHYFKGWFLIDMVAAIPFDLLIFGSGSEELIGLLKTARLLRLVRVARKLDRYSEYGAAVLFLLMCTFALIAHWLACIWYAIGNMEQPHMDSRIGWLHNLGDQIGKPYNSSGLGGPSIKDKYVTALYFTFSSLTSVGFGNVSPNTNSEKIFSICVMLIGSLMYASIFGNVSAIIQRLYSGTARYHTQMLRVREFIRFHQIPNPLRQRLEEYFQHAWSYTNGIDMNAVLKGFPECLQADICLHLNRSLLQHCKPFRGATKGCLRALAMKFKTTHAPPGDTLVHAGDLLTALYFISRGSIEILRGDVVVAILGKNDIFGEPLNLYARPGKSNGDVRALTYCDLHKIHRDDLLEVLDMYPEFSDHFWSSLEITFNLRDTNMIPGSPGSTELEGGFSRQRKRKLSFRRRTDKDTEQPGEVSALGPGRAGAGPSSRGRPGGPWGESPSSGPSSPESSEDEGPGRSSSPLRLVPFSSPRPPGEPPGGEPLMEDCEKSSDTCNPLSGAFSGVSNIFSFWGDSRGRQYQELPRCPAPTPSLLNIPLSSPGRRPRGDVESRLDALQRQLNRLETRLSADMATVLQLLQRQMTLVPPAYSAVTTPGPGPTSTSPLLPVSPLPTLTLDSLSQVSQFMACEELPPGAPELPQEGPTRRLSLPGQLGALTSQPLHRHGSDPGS
# Assay Comment: Inhibition of human ERG at 100 uM relative to control

{"columns": ["Test Smiles", "Study System", "inhibition at 100 µM [%]"],
 "data": [
  ["Cc1c(-c2cc(F)c(N)cc2F)ccc2c3ocnc3c(=O)n(C3CC3)c12", "hERG (KCNH2) (Homo sapiens, UniProt Q12809)", 3]
]}
